This collection of values is drawn from PubChem BioAssay (NCI).

Test system: CAKI-1 renal
Assay: NCI tumour cell line growth inhibition, 48 h; in the data active means GI50 below about 0.43 µM; inactive means the rest
Respond using exactly one of the listed classes: active, inactive

Test call, this molecule: CC1[C@@H]2[C@@H](C=C3C4CCC5Cc6nc7c(nc6C[C@@]5(C)C4C[C@H](O)[C@]32CO)CC2CCC3C4=C[C@H]5O[C@@]6(O[C@@](C)(CO)C[C@@H]6O)C(C)[C@@]5(O)[C@]4(C)[C@@H](O)CC3[C@]2(C)C7)O[C@]12CCC(C)(C)O2 (some centres undefined)
active

Test call, this molecule: COc1cc2c(/C=N\N=C(N)N)c(Cl)[nH]c2cc1C
inactive

Test call, this molecule: COC1=CC(c2ccc[nH]2)=N/C1=C\c1[nH]c(C)c(C(=O)OCc2ccccc2)c1C
active

Test call, this molecule: NS(=O)(=O)c1ccc(NC(=O)c2ccc(NC3=C(Cl)C(=O)N(Cc4ccccc4)C3=O)cc2)cc1
inactive

###

Test system: OVCAR-4 ovarian
Experiment: NCI tumour cell line growth inhibition, 48 h
RECORDED_METRIC: TGI

Any idea what its TGI is? The molecule is COc1ccc(C#Cc2ccccc2C#CCCCCO)cc1
28.1 µM

Any idea what its TGI is? The molecule is CC(=O)N1CCN(C2=Nc3ccccc3CO2)C1=S
> 100 µM

Any idea what its TGI is? The molecule is C=C(C)[C@@]1(O)O[C@H]2C[C@@]3(C)OC(=CC3=O)/C(C)=C\[C@@H]3OC(=O)[C@@]1(C)[C@H]32
> 100 µM

Any idea what its TGI is? The molecule is Cc1ccc(S(=O)(=O)N/N=C/c2oc(-c3cccc([N+](=O)[O-])c3)c(-c3cccc([N+](=O)[O-])c3)c2[N+](=O)[O-])cc1
> 100 µM

Any idea what its TGI is? The molecule is COc1ccc2oc(=N)c(C(=O)Nc3cccc4ccccc34)cc2c1
40.3 µM

Any idea what its TGI is? The molecule is CCC(C)[C@@H](NCc1ccccc1)[C@H](OCc1ccccc1)[C@@H]1COC(C)(C)O1 (stereo partly specified)
> 100 µM

Any idea what its TGI is? The molecule is OCCOc1ccc(-c2cc(-c3ccccn3)nc(-c3ccccn3)c2)cc1
> 100 µM

Any idea what its TGI is? The molecule is Cc1ccc(C2CC(=O)CC(c3ccc(C)cc3)C23C(=O)NC(=O)NC3=O)cc1 (stereo unspecified)
> 100 µM

Any idea what its TGI is? The molecule is COc1ccc(Cn2c(C)nc3c2C(=O)c2ccccc2C3=O)cc1
64.1 µM

Any idea what its TGI is? The molecule is Cc1cccc(C(=O)c2cccc3ccccc23)c1C(=O)O
> 100 µM

Any idea what its TGI is? The molecule is O=C1C(N2CCCC2)=CC(=O)c2c(O)c(N3CCCC3)c(Cl)c(O)c21
> 10 µM

Any idea what its TGI is? The molecule is C=C(CNC(=O)Nc1ccc(-c2ccccc2)cc1)c1ccc(C(=O)Nc2ccccc2N)cc1
> 100 µM

Any idea what its TGI is? The molecule is Cc1ccc(C)c(NC(=O)C(=O)CC(=O)C2CCOC2=O)c1 (stereo unspecified)
> 100 µM

Any idea what its TGI is? The molecule is C=C1C(=O)OC2/C=C(\C)C(OC(C)=O)C3OC3C(C)(O)CC(OC(=O)/C(C)=C/C)C12 (stereo unspecified)
62.2 µM

Any idea what its TGI is? The molecule is Cc1nc2c(=S)[nH]ncc2[nH]1
> 100 µM

Any idea what its TGI is? The molecule is CNC(=O)c1ccccc1-[s+]1c2ccccc2c(=O)n1C (stereo unspecified)
> 100 µM

Any idea what its TGI is? The molecule is CN(C)CCNc1ccc(C(=O)NCCCN(C)CCCNC(=O)c2ccc(NCCN(C)C)c3c(=O)c4ccccc4[nH]c23)c2[nH]c3ccccc3c(=O)c12
0.211 µM

Any idea what its TGI is? The molecule is Cc1nc2sccn2c1/C=C1/C(=O)Nc2ccccc21
> 100 µM

Any idea what its TGI is? The molecule is FC(F)(F)C1(Cl)C(c2ccccc2)=C1c1ccccc1
26.6 µM

Any idea what its TGI is? The molecule is Cc1c2cc[nH]c(C(F)(F)F)c2cc2c1nc1ccccc12
> 125 µM

Any idea what its TGI is? The molecule is N#C/C(=C\c1ccccc1O)C(N)=O
> 100 µM

Any idea what its TGI is? The molecule is S=c1sc2c(Cl)ncnc2n1-c1ccccc1
33.6 µM

Any idea what its TGI is? The molecule is C=CC(=O)Nc1ccc(Nc2nccc(-c3ccc(N4CCCC4)c(C#N)c3)n2)cc1
> 25 µM

Any idea what its TGI is? The molecule is Cc1ccc(NCCCN2CCN(CCCNc3ccc(C)c4sc5ccccc5c(=O)c34)CC2)c2c(=O)c3ccccc3sc12
> 100 µM

Any idea what its TGI is? The molecule is COC(=O)Cc1cc(OC)c(OC)cc1Br
> 100 µM

Any idea what its TGI is? The molecule is CN(C)c1nc2sc3c(c2c(=O)o1)CCCC3
> 100 µM

Any idea what its TGI is? The molecule is CC12CC3C(CC1SCC(=O)O2)C3(C)C (stereo unspecified)
> 100 µM

Any idea what its TGI is? The molecule is CCCCNC1CCC2(SCCS2)c2[nH]c3ccccc3c21 (stereo unspecified)
> 100 µM

Any idea what its TGI is? The molecule is C[n+]1c(/C=C\C=C\N2CCCCC2)sc2ccccc21
> 42.4 µM

Any idea what its TGI is? The molecule is COc1ccc(-c2[nH]ncc2-c2cc3c(c(OC)c2)OCC(=O)N3)cc1
77.9 µM

Any idea what its TGI is? The molecule is Clc1ccc2c(SCC3CO3)c3ccccc3nc2c1 (stereo unspecified)
21.1 µM
